The following compounds are shown together with reported selective drug sensitivity score values.
system: TANOUE; assay: selective drug sensitivity score (sDSS, relative to normal bone marrow) (sDSS (score)); higher = more potent and effective on the cell line relative to normal bone marrow cells; conditions: 72 h;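 also: ALL cell lines in 384-well plates, five doses spanning 10,000-fold, each plate scaled between vehicle and 100 µmol/L benzalkonium chloride controls, sDSS an adapted area-under-curve metric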
When you answer, write just the number.

Which selective drug sensitivity score reading was recorded for the compound COC12C(COC(N)=O)C3=C(C(=O)C(C)=C(N)C3=O)N1CC1NC12 (stereo in doubt) [Mitomycin_C] (top concentration 10000 nM) ?
-2.86

So what does the record say about selective drug sensitivity score for C[C@H]1C=C2C(=O)O[C@H]3CC[C@@H](C1)[C@@]23O [Galiellalactone] (top concentration 25000 nM) ?
-0.94

// returns reported selective drug sensitivity score for input COc1cc2ncnc(Nc3ccc(F)c(Cl)c3)c2cc1OCCCN1CCOCC1 [Gefitinib] (top concentration 10000 nM)
-1.84
